# System: NCI-H460 lung
# Method Description: NCI-60 one-dose screen, 48 h (100 = growth as untreated, 0 = no growth, -100 = all killed)
# Run Conditions: 10 µM unless noted
The panel holds about 83,000 compounds, 20% with a hit somewhere; the sample as a whole holds those more often.
Metric Name: growth (%)
Give just the number in %; leave the unit off.

Use these answered entries as a reference point.
Prompt: GET /values?readout=growth&system=NCI-H460 lung&item= CC1(C)N=C(N)N=C(N)N1c1ccc(CCCCc2ccc(S(=O)(=O)F)cc2)c(Cl)c1
Completion: 10.7

Prompt: And then C[As](=O)(O)c1ccc(C(=O)O)cc1 , what is it?
Completion: 112

Prompt: Continue with CC(/C=N/N=C(N)N)=N/N=C(N)N
Completion: 66.2

Prompt: Similarly, O=C1NC(=O)C(=Cc2cn(Cc3ccccc3)c3ccccc23)C(=O)N1 ?
Completion: 29.9

Prompt: Check CCCC(C)(C)c1ccc2c(c1)OC(C)(C)[C@@H]1CC=C(C)C[C@@H]21 too.
Completion: 106

From here, focus on the item given below.
Prompt: Form field: growth recorded for CC(C)N=C(NC(C)C)N1CC1 with NCI-H460 lung (enter value)
Completion: 116
